- target-or-test-system: FOXO3-DBD (Homo sapiens, UniProt O43524 156-269)
- Sequence (O43524 156-269): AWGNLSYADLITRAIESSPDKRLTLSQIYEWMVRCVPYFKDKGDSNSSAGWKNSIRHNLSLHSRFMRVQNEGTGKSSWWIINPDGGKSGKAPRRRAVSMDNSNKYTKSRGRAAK
- assay-summary: fluorescence polarization; 5 nM IRE-FAM, 1-350 nM protein; FPA: 200 mM Tris pH 7.5, 100 mM NaCl, 1 mM EDTA (BSA-precoated plates), 30 min RT (15 C, uncoated for FOXO1/3/4/6 comparison); FAM-EMSA: 20 mM Tris pH 7.5, 100
- measurement-conditions: protein: recombinant; tags: N-terminal GST; His (GST-His-purified); blunt
pKd: −log10 of the molar value.
parameter: pKd

binder="IRE-FAM (dsDNA) DNA 1: CTATCAAAACAACGC DNA 2: GCGTTGTTTTGATAG" reported_result=7.27
